FYI, the data here is from PubChem BioAssay (EPA / NIEHS).

read-out: CD40, CD40 (gene 958); experiment: BSK_LPS_CD40: BioMAP Diversity Plus: LPS Assay for CD40 Biomarker Activity (AID 2283076); settings: primary human HUVEC with PBMC; actives raise or lower the signal
The source made the active and inactive calls. How the source made its calls: active means hit-call score of the fitted dose curve at least 0.9, where 1 is the maximum; inactive means score below 0.9.
measured endpoint: AC50

Completed entries (count: 5):
compound=CCCCCCCCCCCCCCCC(=O)OC/C=C(C)/C=C/C=C(C)/C=C/C1=C(C)CCCC1(C)C measured_endpoint=AC50 endpoint_value=inactive
compound=c1ccc2cc(Nc3ccc(Nc4ccc5ccccc5c4)cc3)ccc2c1 measured_endpoint=AC50 endpoint_value=inactive
compound=CCCCOC(=O)CCCCCCCC(=O)OCCCC measured_endpoint=AC50 endpoint_value=inactive
compound=CSCCC=O measured_endpoint=AC50 endpoint_value=inactive
compound="CC(C=O)Cc1ccc(C(C)(C)C)cc1 (centres undefined)" measured_endpoint=AC50 endpoint_value="27.2 µM (active)"

What does the record list as AC50 for C=CC(C)(O)CCC=C(C)C (centres undefined) ?
inactive

What do we get for Clc1cc(Cl)c(-c2c(Cl)c(Cl)cc(Cl)c2Cl)cc1Cl ?
10 µM (active)

Then what about the compound O=C(Nc1ccc2c(O)c(N=Nc3ccc(N=Nc4ccc(S(=O)(=O)O)cc4)cc3)c(S(=O)(=O)O)cc2c1)c1ccccc1 ?
inactive

Now try CC1(C)C2=CCCC(C)(C)[C@]23CC[C@H]1C3 .
inactive

And for O=CN1CCOCC1 ?
inactive

Entry to check: CN(C)C(=O)Nc1ccc(Oc2ccc(Cl)cc2)cc1
inactive

What would you report for c1ccc(Oc2ccccc2)cc1 ?
inactive
